Target: ER (Homo sapiens, UniProt P03372)
Construct: T47D breast cancer cells were subcultured in cell culture medium; endogenous in cells; host or cells: T47D breast cancer cells
Experiment: Degradation activities on ER (ELISA) in T47D breast cancer cells
Format: cell-based
Conditions: T47D cells, 24 h, ELISA; concentration required to degrade 50% of the target protein
ASSAY_METRIC: DC50

Answered cases to consult:
Query :: Consider the compound shown here: O=C1CC[C@@H](N2Cc3cc(N4CC5(CCN(CC6CCN(c7ccc([C@@H]8c9ccc(O)cc9OC[C@@H]8c8ccccc8F)cc7)CC6)CC5)C4)ccc3C2=O)C(=O)N1 [Example 90] What is its recorded DC50?
Result :: > 100 nM

Query :: Do the same for O=C1CCC(N2Cc3cc(N4CCC(N5CC6(CCN(c7ccc([C@@H]8c9ccc(O)cc9CC[C@@H]8c8ccccc8F)cc7F)CC6)C5)CC4)ccc3C2=O)C(=O)N1 (some centres unmarked) [Example 67] please
Result :: < 10 nM

Query :: Do the same for O=C1CCC(N2Cc3cc(N4CC5(CCN(CC6CCN(c7c(F)cc(C8=C(c9c(F)cccc9F)COc9cc(O)ccc98)cc7F)CC6)CC5)C4)ccc3C2=O)C(=O)N1 (centres unmarked) [Example 42] please
Result :: < 10 nM

Query :: Do the same for Cc1ccccc1[C@H]1COc2cc(O)ccc2[C@H]1c1ccc(N2CCC(CN3CCC4(CC3)CN(c3ccc5c(c3)CN(C3CCC(=O)NC3=O)C5=O)C4)CC2)cc1 (some centres unmarked) [Example 35] please
Result :: 10 to 50 nM

Query :: Do the same for O=C1CCC(N2Cc3cc(N4CCC(N5CC6(CCN(c7ccc([C@@H]8c9ccc(O)cc9OC[C@@H]8c8ccccc8)cc7)CC6)C5)CC4)ccc3C2=O)C(=O)N1 (some centres unmarked) [Example 13] please
Result :: < 10 nM

Query :: Do the same for O=C1CCC(N2C(=O)c3ccc(N4CC5(CN(CC6CCN(c7ccc([C@@H]8c9ccc(O)cc9CC[C@@H]8c8ccccc8)cc7)CC6)C5)C4)cc3C2=O)C(=O)N1 (some centres unmarked) [Example 54] please
Result :: > 100 nM

More entries:
Query :: Consider the compound shown here: O=C1CCC(N2Cc3cc(N4CC5(CCN(CC6CCN(c7ccc([C@H]8c9ccc(O)cc9OC[C@H]8c8ccccc8F)cc7F)CC6)CC5)C4)ccc3C2=O)C(=O)N1 (relative stereo) [Example 87] What is its recorded DC50?
Result :: < 10 nM

Query :: Do the same for O=C1CCC(N2Cc3cc(N4CCC(N5CC6(CCN(c7ccc([C@@H]8c9ccc(O)cc9CC[C@@H]8c8ccccc8F)cc7)CC6)C5)CC4)ccc3C2=O)C(=O)N1 (some centres unmarked) [Example 19] please
Result :: < 10 nM

###

Biological target: ER (Homo sapiens, UniProt P03372)
Construct: T47D breast cancer cells were subcultured in cell culture medium; endogenous in cells; host or cells: T47D breast cancer cells
Sequence (P03372 1-595): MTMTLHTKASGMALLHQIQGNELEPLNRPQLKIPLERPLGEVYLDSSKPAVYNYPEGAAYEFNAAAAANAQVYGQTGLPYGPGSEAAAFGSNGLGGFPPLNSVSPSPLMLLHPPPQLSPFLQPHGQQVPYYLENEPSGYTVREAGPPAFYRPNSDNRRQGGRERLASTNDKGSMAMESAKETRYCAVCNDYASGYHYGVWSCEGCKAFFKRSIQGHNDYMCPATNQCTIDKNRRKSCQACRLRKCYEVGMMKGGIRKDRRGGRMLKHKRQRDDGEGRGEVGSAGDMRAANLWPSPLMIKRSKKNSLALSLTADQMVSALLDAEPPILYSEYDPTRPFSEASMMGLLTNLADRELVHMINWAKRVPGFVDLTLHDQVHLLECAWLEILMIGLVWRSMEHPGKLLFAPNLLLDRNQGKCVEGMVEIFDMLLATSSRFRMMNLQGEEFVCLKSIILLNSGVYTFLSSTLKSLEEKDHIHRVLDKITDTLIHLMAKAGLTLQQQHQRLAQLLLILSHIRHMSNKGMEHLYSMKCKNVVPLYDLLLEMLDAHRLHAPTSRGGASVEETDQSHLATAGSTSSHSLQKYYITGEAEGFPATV
Test: Degradation activities on ER (ELISA) in T47D breast cancer cells
Type: cell-based
Settings: T47D cells, 24 h, ELISA; concentration required to degrade 50% of the target protein
Listed compounds paired with reported DC50

Query :: Consider the compound shown here: O=C1CCC(N2Cc3cc(N4CC5(CCN(CC6CCN(c7ccc([C@@H]8c9ccc(O)cc9OC[C@@H]8c8c(F)cccc8F)cc7F)CC6)CC5)C4)ccc3C2=O)C(=O)N1 (stereo partly drawn) [Example 70] What is its recorded DC50?
Result :: < 10 nM

Query :: Do the same for O=C1CCC(N2Cc3cc(N4CCC(N5CC6(CCN(c7ccc([C@@H]8c9ccc(O)cc9OC[C@@H]8c8ccccc8F)cc7)CC6)C5)CC4)ccc3C2=O)C(=O)N1 (stereo partly drawn) [Example 20] please
Result :: < 10 nM

Query :: Do the same for O=C1CCC(N2Cc3cc(N4CCC(N5CC6(CCN(c7ccc([C@H]8c9ccc(O)cc9OC[C@H]8c8ccccc8F)cc7)CC6)C5)CC4)ccc3C2=O)C(=O)N1 (stereo partly drawn) please
Result :: > 100 nM

###

Biological target: ER (Homo sapiens)
Construct: T47D breast cancer cells were subcultured in cell culture medium; endogenous in cells; host or cells: T47D breast cancer cells
Sequence (P03372 1-595): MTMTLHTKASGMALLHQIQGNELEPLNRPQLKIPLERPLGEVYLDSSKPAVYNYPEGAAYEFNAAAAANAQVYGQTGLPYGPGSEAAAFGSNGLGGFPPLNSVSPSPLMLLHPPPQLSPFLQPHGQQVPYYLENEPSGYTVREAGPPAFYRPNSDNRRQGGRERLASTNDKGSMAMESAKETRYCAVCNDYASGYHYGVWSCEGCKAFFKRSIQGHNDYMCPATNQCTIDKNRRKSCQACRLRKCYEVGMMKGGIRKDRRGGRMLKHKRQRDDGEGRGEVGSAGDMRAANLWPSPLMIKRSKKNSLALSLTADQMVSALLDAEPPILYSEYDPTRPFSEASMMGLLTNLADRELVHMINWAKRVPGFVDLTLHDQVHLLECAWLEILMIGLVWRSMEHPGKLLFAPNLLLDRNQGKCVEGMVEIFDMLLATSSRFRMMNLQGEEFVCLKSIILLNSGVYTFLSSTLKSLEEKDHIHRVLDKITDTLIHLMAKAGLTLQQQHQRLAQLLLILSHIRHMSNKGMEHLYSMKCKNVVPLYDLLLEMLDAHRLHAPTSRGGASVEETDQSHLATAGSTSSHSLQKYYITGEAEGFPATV
Assay: Degradation activities on ER (ELISA) in T47D breast cancer cells
Assay type: cell-based
Conditions: T47D cells, 24 h, ELISA; concentration required to degrade 50% of the target protein
Listed compounds paired with reported DC50

Query :: Consider the compound shown here: O=C1CCC(N2Cc3cc(N4CC5(CCN(CC6CCN(c7ccc([C@@H]8c9ccc(O)cc9OC[C@@H]8c8cccc(F)c8)cc7)CC6)CC5)C4)ccc3C2=O)C(=O)N1 (stereo partly drawn) What is its recorded DC50?
Result :: < 10 nM

Query :: Do the same for O=C1CCC(N2Cc3cc(N4CC5(CCN(CC6CCN(c7c(F)cc([C@@H]8c9ccc(O)cc9OC[C@@H]8c8ccccc8F)cc7F)CC6)CC5)C4)ccc3C2=O)C(=O)N1 (stereo partly drawn) [Example 32] please
Result :: < 10 nM

Now look at this one.
Query :: Consider the compound shown here: O=C1CCC(N2Cc3cc(N4CC5(CCN(CC6CCN(c7ccc([C@@H]8c9ccc(O)cc9OC[C@@H]8c8ccccc8)cc7F)CC6)CC5)C4)ccc3C2=O)C(=O)N1 (stereo partly drawn) What is its recorded DC50?
Result :: < 10 nM

###

Target: ER (Homo sapiens, UniProt P03372)
Construct: T47D breast cancer cells were subcultured in cell culture medium; endogenous in cells; host or cells: T47D breast cancer cells
Experiment: Degradation activities on ER (Western blotting) in T47D breast cancer cells
Format: cell-based
Conditions: compound concentration 100 nM, 24 h, Western blot
ASSAY_METRIC: Percentage reduction of ER (%)

Answered cases to consult:
Query :: Consider the compound shown here: O=C1CCC(N2Cc3cc(N4CC5(CCN(CC6CCN(c7ccc([C@@H]8c9ccc(O)cc9CC[C@@H]8c8ccccc8)cc7)CC6)C5)C4)ccc3C2=O)C(=O)N1 (stereo partly shown) What is its recorded Percentage reduction of ER?
Result :: 50

Query :: Do the same for O=C1CCC(N2C(=O)c3ccc(N4CC5(CN(CC6CCN(c7ccc([C@@H]8c9ccc(O)cc9CC[C@@H]8c8ccccc8)cc7)CC6)C5)C4)cc3C2=O)C(=O)N1 (stereo partly shown) please
Result :: 57

1. O=C1CCC(N2Cc3cc(N4CC5(CCN(CC6CCN(c7ccc([C@H]8c9ccc(O)cc9OC[C@H]8c8ccccc8F)cc7)CC6)CC5)C4)ccc3C2=O)C(=O)N1 (stereo partly shown)
2. O=C1CCC(N2C(=O)c3ccc(N4CC(N5CCN(c6ccc([C@@H]7c8ccc(O)cc8CC[C@@H]7c7ccccc7)cc6)CC5)C4)cc3C2=O)C(=O)N1 (stereo partly shown)
Query :: Select one: 1 or 2 . Criterion: greater recorded Percentage reduction of ER. // respond with label for picked entry
Result :: 1
